System: U2OS
Experiment: Multiplex assay against U2OS
Type: toxicity, cell-based
Details: human, 12 h, 1 µM, compound concentration 1 uM, replicate 1
Flag rule - Population Fragmented Nuclei (%) less than 30% flags class 1; the remaining entries get class 0.

Record excerpt, results attached:
compound | answer-label
Cl.N=C(N)NC(=O)Cc1c(Cl)cccc1Cl [GUANFACINE HYDROCHLORIDE] | class 1
O=C1[C@H](Cc2ccc(O)cc2)N2C(=O)CCN(C(=O)NCc3ccccc3)[C@H]2CN1Cc1cccc2ccccc12 | class 1

In plain terms, does COC[C@@H](c1ccc(C(F)(F)F)cc1)N1CCN(C2(C)CCN(C(=O)c3c(C)ncnc3C)CC2)C[C@@H]1C.O=C(O)/C=C\C(=O)O [VICRIVIROC MALEATE] come in under 30% for Population Fragmented Nuclei (%)?
class 0

In plain terms, does CC(C)(C)c1cc(NC(=O)Nc2ccc(-c3cn4c(n3)sc3cc(OCCN5CCOCC5)ccc34)cc2)no1 [QUIZARTINIB] come in under 30% for Population Fragmented Nuclei (%)?
class 1

In plain terms, does Cc1sc2c(c1C)C(c1ccc(Cl)cc1)=N[C@@H](CC(=O)NCCCCCCCCNC(=O)COc1cccc3c1C(=O)N(C1CCC(=O)NC1=O)C3=O)c1nnc(C)n1-2 (stereo partly drawn) come in under 30% for Population Fragmented Nuclei (%)?
class 0

In plain terms, does CC[C@@H](C)Nc1nc(C)nc2c(-c3ccc(OC)nc3C)c(C)nn12 [PEXACERFONT] come in under 30% for Population Fragmented Nuclei (%)?
class 1

In plain terms, does "CCCOc1ccc2[nH]cc(C3=CCNCC3)c2n1.Cl" come in under 30% for Population Fragmented Nuclei (%)?
class 0

In plain terms, does CCCCC1=NC2(CCCC2)C(=O)N1Cc1ccc(-c2ccccc2-c2nnn[nH]2)cc1 [IRBESARTAN] come in under 30% for Population Fragmented Nuclei (%)?
class 1

In plain terms, does CC(C)c1noc(N2CCC(COc3ccc(-c4ccc(S(C)(=O)=O)cc4)nc3)CC2)n1 [GSK-1292263] come in under 30% for Population Fragmented Nuclei (%)?
class 1

In plain terms, does "Cc1onc(-c2ccccc2Cl)c1C(=O)N(C)c1ccc(Cl)cc1" come in under 30% for Population Fragmented Nuclei (%)?
class 1

In plain terms, does "COc1cccc2c1c(NS(=O)(=O)c1ccc(Cl)s1)nn2Cc1cccc(CNC(=O)C(C)(C)O)c1" come in under 30% for Population Fragmented Nuclei (%)?
class 1

In plain terms, does "N#Cc1cc(F)cc(-c2nc(-c3ccc(F)cn3)no2)c1" come in under 30% for Population Fragmented Nuclei (%)?
class 1

In plain terms, does "N#Cc1c(Oc2cccc(OS(=O)(=O)CCCC(F)(F)F)c2)cccc1C(F)(F)F" come in under 30% for Population Fragmented Nuclei (%)?
class 1

In plain terms, does "CN(C)C(=O)Cn1cc(-c2ccc(-c3cncc4ccccc34)cc2)cn1" come in under 30% for Population Fragmented Nuclei (%)?
class 1

In plain terms, does Cc1c(CC(=O)O)c2cccnc2n1Cc1ccc(S(C)(=O)=O)cc1C(F)(F)F [FEVIPIPRANT] come in under 30% for Population Fragmented Nuclei (%)?
class 1

In plain terms, does CCCCCC(O)/C=C/[C@H]1C(=O)CC(O)C1C/C=C\CCCC(=O)O (stereo partly drawn) come in under 30% for Population Fragmented Nuclei (%)?
class 1
